experimentSummary: Solubilization of docetaxel in fatty acid, fatty acid salt or oleate liposome media
Format: physicochemical
conditionSet: aqueous with cosolvent or surfactant or cyclodextrin; Example 10: solid docetaxel in pre-made liposome, 2 mM sodium oleate, 6% soy phosphatidyl choline, 10% trehalose, pH 5-7; read-out: concentration at which docetaxel was soluble and formulation transparent
valueType: solubility
Remember to quote the unit after the number.

Hello, please tell me recorded solubility for this one: `CC(=O)O[C@@]12CO[C@@H]1C[C@H](O)[C@@]1(C)C(=O)[C@H](O)C3=C(C)[C@@H](OC(=O)[C@H](O)[C@@H](NC(=O)OC(C)(C)C)c4ccccc4)C[C@@](O)([C@@H](OC(=O)c4ccccc4)[C@H]21)C3(C)C` 5000 µg/mL

###

experimentSummary: Solubilization of docetaxel in fatty acid, fatty acid salt or oleate liposome media
Assay type: physicochemical
conditionSet: oleic acid / ethanolamine dispersion in water for injection, aqueous with cosolvent or surfactant or cyclodextrin; Example 6: oleic acid, ethanolamine, water for injection; read-out: concentration at which docetaxel was soluble and formulation clear
valueType: solubility (µg/mL)
Field format: number, assumed µg/mL, no unit text.

Give solubility for the following compound: CC(=O)O[C@@]12CO[C@@H]1C[C@H](O)[C@@]1(C)C(=O)[C@H](O)C3=C(C)[C@@H](OC(=O)[C@H](O)[C@@H](NC(=O)OC(C)(C)C)c4ccccc4)C[C@@](O)([C@@H](OC(=O)c4ccccc4)[C@H]21)C3(C)C [Docetaxel] 5000

###

experimentSummary: Solubilization of docetaxel in fatty acid, fatty acid salt or oleate liposome media
Assay type: physicochemical
conditionSet: 1 M sodium caprylate solution, aqueous with cosolvent or surfactant or cyclodextrin; Example 8: 1 M sodium caprylate; read-out: concentration at which docetaxel was soluble and formulation clear
valueType: solubility (µg/mL)
# number only, unit µg/mL dropped from output

Fill in reported solubility for this entry: CC(=O)O[C@@]12CO[C@@H]1C[C@H](O)[C@@]1(C)C(=O)[C@H](O)C3=C(C)[C@@H](OC(=O)[C@H](O)[C@@H](NC(=O)OC(C)(C)C)c4ccccc4)C[C@@](O)([C@@H](OC(=O)c4ccccc4)[C@H]21)C3(C)C [Docetaxel] 2000

Measured values drawn from patent US20110070293A1 for this set.
